Assay: Mycobacterium tuberculosis growth inhibition, primary screen (AID 1259343)
Conditions: at 10 µM, hits give high values
The whole screen tested about 6,200 compounds, of which about 2,900 (47%) were called active. The set was probably picked from earlier hits. This is one part of the list.
measurement.type: inhibition

| compound | value |
| --- | --- |
| CN1C(=O)C(=Cc2cccc(OCc3ccccc3Cl)c2)C(=O)N(C)C1=O | 14.1% (inactive) |
| CC(C)c1ccc(C(C)NC(=O)c2cccn2C)cc1 (stereo unspecified) | 79% (active) |
| NC(=NC1C2CC3CC(C2)CC1C3)Nc1ccc(I)cc1 (stereo unspecified) | 42.8% (inactive) |
| Cn1cccc1C(=O)NS(=O)(=O)c1ccc(C#N)c(Cl)c1 | 15% (inactive) |
| CC(NC(=O)c1cccnc1N1CCCCC1)c1ccc(C#N)cc1 (stereo unspecified) | 4.4% (inactive) |
| Cc1cc(NC(=O)C(C)Oc2ccccc2)n(-c2nc3c(c(=O)[nH]2)CCC3)n1 (stereo unspecified) | 100% (active) |

###

Assay: Mycobacterium tuberculosis growth inhibition, primary screen (AID 1259343)
Conditions: at 10 µM
In all, about 6,200 compounds went through this assay and about 2,900 (47%) were called active. Rule as the data show it: active = inhibition above about 50%; inactive = the rest. So high a share suggests a set chosen from earlier hits. Some of the results follow.
Outcome codes: active, inactive

| compound.structure | discrete.label |
| --- | --- |
| CCCc1cc(=O)[nH]c(-n2nc(C)cc2NC(=O)C(C)(C)CCl)n1 | active |
| CCCc1cc(=O)[nH]c(-n2nc(C)cc2NC(=O)C(C)(C)Oc2ccc(Cl)cc2)n1 | inactive |
| CCCc1cc(=O)[nH]c(-n2nc(C)cc2NC(=O)CC)n1 | active |
| CCc1c(C)nc(-n2nc(C)cc2NC(=O)c2cccc3ccccc23)[nH]c1=O | active |
| CCc1c(C)nc(-n2nc(C)cc2NC(=O)c2ccccc2SC)[nH]c1=O | active |

###

Test: Mycobacterium tuberculosis growth inhibition, primary screen (AID 1259343)
Conditions: at 10 µM
About 2,900 (47%) of roughly 6,200 compounds were called active. No stated cut-off is given here; in the data, active means inhibition above about 50%; inactive means the rest. So high a share suggests a set chosen from earlier hits. The list shows a part of the results.
Outcome codes: Yes for active, No for inactive

| molecule | discrete.label |
| --- | --- |
| CCCNC(=O)C1(C)CCN(Cc2csc(-c3ccc(Cl)cc3)n2)C1 (stereo unspecified) | No |
| O=C(O)c1cccnc1Nc1ccc(Cl)c(Cl)c1 | Yes |
| O=C(Oc1ccc2ccccc2c1)c1cccs1 | Yes |
| CCOc1ccccc1C(=O)Oc1ccc2ccc(O)cc2c1 | No |
| CC(Sc1ncnc2c1nnn2-c1ccc(F)cc1)c1ccccc1 (stereo unspecified) | Yes |
| CC1(C)C(C(Cl)Cl)C2(Cl)C(Cl)C(Cl)C1(Cl)C2(Cl)Cl (stereo unspecified) | Yes |

###

Experiment: Mycobacterium tuberculosis growth inhibition, primary screen (AID 1259343)
Conditions: at 10 µM
The campaign covered roughly 6,200 compounds. About 2,900 (47%) were called active. No stated cut-off is given here; in the data, active means inhibition above about 50%; inactive means the rest. The set was probably picked from earlier hits. Some of the results follow.
Outcome codes: active, inactive

| compound | discrete.label |
| --- | --- |
| Oc1c(Br)cc2oc3c(c2c1C=NCc1ccncc1)CCCC3 | active |
| Cc1cccc(Cn2nc(-c3ccc(Br)cc3)ccc2=O)c1 | inactive |
| COc1ccc(-c2nc(CNc3ccc(C)c(F)c3)no2)cc1 | active |
| CCOC(=O)NCC(=O)N(Cc1ccc(C(F)(F)F)cc1)C1CC1 | inactive |
| Cc1cccc(Cn2nc(-c3ccc(F)cc3)c3sc(C)nc3c2=O)c1 | active |
| CC1CN(c2ccc(C(=O)NC(c3ccccc3)c3ccc(Cl)cc3)cn2)CCN1 (stereo unspecified) | inactive |

###

Some compounds, each annotated with its measured inhibition.
Assay: Mycobacterium tuberculosis growth inhibition, primary screen (AID 1259343)
Details: at 10 µM, hits give high values
In all, about 6,200 compounds went through this assay and about 2,900 (47%) were called active. The set was probably picked from earlier hits. The list shows a part of the results.
measurement.type: inhibition (%)

| compound | measurement.type | units.of.measure | value |
| --- | --- | --- | --- |
| O=C1C(=Cc2cccs2)CCC1=Cc1cccs1 | inhibition | % | 103 |
| S=C(NN=Cc1cccs1)NC1CCCCC1 | inhibition | % | 87.5 |
| C=CCC1SC(=NN=Cc2cccs2)NC1=O (stereo not drawn) | inhibition | % | 22.9 |
| CC1CC(N2CCN(c3nccs3)CC2)C(=O)O1 (stereo not drawn) | inhibition | % | 2.21 |
| O=C(C=Cc1cccs1)NC1CCCCC1 | inhibition | % | 37 |
| C(=NNc1ccc2ccccc2n1)c1cccs1 | inhibition | % | 39.2 |
| Cc1cc(C)c(CNC(=O)c2ccc3ccccc3n2)c(=O)[nH]1 | inhibition | % | 70.6 |
| Cn1c(=NC(=O)c2ccc3ccccc3n2)sc2ccccc21 | inhibition | % | 45.5 |
| O=C1/C(=C/c2cccs2)C(c2cccs2)Oc2ccccc21 (stereo not drawn) | inhibition | % | 33 |
| CCCC(Nc1nc(-c2cccnc2)nc2c1cnn2C)c1cccs1 (stereo not drawn) | inhibition | % | 27.3 |
| CCC(CNC(=O)/C=C/c1sccc1C)c1ccccc1 (stereo not drawn) | inhibition | % | 28.2 |
| CC(C)NC(=S)NN=Cc1cccs1 | inhibition | % | 100 |
| CC12CCC(O)CC1=CCC1C2CCC2(C)C(O)C(=Cc3ccc([N+](=O)[O-])cc3)CC12 (stereo not drawn) | inhibition | % | -53.2 |

###

Experiment: Mycobacterium tuberculosis growth inhibition, primary screen (AID 1259343)
Settings: at 10 µM, hits give high values
About 2,900 (47%) of roughly 6,200 compounds were called active. The set was probably picked from earlier hits. The list shows a part of the results.
measurement.type: inhibition (%)

| compound | measurement.type | value |
| --- | --- | --- |
| Fc1ccccc1COc1ccccc1CNc1nn[nH]n1 | inhibition | 57.1 |
| O=C(c1ccc(-c2ccc(O)cc2)nc1)N1CCC(CCc2ccccc2)CC1 | inhibition | 83.7 |
| c1ccc(-c2ccc(CCC3CCN(Cc4cccs4)CC3)cc2)cc1 | inhibition | 43.2 |
| O=[N+]([O-])c1ccc(NN=C2CCCCCCC2)cc1 | inhibition | 88.4 |
| Cc1cc(C)cc(N2C(=O)C3N=NN(c4ccc(Br)c(C)c4)C3C2=O)c1 (stereo unspecified) | inhibition | 89 |
| CCC(C)(C)C1CCC(=NNc2ccc([N+](=O)[O-])cc2)CC1 (stereo unspecified) | inhibition | 74.3 |
| CC(C)(C)C1CCC(=NNc2ccc([N+](=O)[O-])cc2)CC1 (stereo unspecified) | inhibition | -18.8 |
| Cc1nn(-c2ccc(C(F)(F)F)cc2)c(C)c1[C@@H]1C=C[C@@H](NCc2ccc(N(C)C)cc2)C1 | inhibition | 78.3 |
| COc1ccc(F)cc1-c1csc(-c2ccc(NC(=O)C3CC3)cc2)n1 | inhibition | 71.9 |
| CC(C)c1cc(=O)n2[nH]cc(-c3ccccc3)c2n1 | inhibition | -1.37 |
| Cc1ccnc(Nc2ccc(NCCNC(=O)Nc3cccc(Cl)c3C)nn2)c1 | inhibition | 36.1 |
| CC(C)c1cccc(Nc2nnc(C(O)c3ccccc3)s2)c1 (stereo unspecified) | inhibition | 68.4 |
| COc1ccc(-c2cc(NC(=O)C3CC3)ccc2OC)cc1 | inhibition | 93.7 |
| O=C1OCC(CO)(CO)N=C1NNc1ccc([N+](=O)[O-])cc1 | inhibition | -25.1 |
| COc1ccc(-c2cc(CNC(=O)C3CC3)no2)cc1 | inhibition | 30.7 |
| COc1ccc(C2=NOC(CNCc3cccc(C(F)(F)F)c3)C2)cc1 (stereo unspecified) | inhibition | 43.6 |
| CSc1ncc(CNCCc2cccc(Cl)c2)c(N2CCCC(C)C2)n1 (stereo unspecified) | inhibition | 18 |
| Clc1ccc(-c2nc(-c3ccccn3)no2)cc1 | inhibition | 79.7 |
| Clc1ccc(C2CCCN(Cc3nc(-c4ccccn4)no3)C2)cc1 (stereo unspecified) | inhibition | 73 |
| Clc1cccc(N2CCN(C3CCCN(Cc4ccc5nsnc5c4)C3)CC2)c1 (stereo unspecified) | inhibition | 75.5 |
| COc1ccc(C2=NOC(c3ccc(C)cc3)C2)cc1 (stereo unspecified) | inhibition | 22.2 |
| O=C(c1ccco1)N1CCC(Cc2ccc(F)cc2)CC1 | inhibition | 86.8 |
| Fc1ccccc1OCc1n[nH]c(=S)o1 | inhibition | 47.7 |
| Nc1ccc2scnc2c1 | inhibition | 94.5 |
| COC(=O)c1ccc(N2CCN(Cc3nc(Cc4cccc(F)c4)no3)CC2)cc1 | inhibition | 59.4 |
| COc1ccc(N2C(=O)C(c3c(C(C)C)[nH]n(-c4ccc(Cl)cc4)c3=O)=C(N3CCC(C)CC3)C2=O)c(OC)c1 | inhibition | 39 |
| O=C(Nc1ccc2c(c1)Cc1ccccc1-2)C1CCCO1 (stereo unspecified) | inhibition | 81.9 |
| Clc1cccc(CN2CCCC(Nc3ccccc3)C2)c1 (stereo unspecified) | inhibition | 59.2 |
| COc1ccc(C2=NOC(CNCc3cccc(F)c3)C2)cc1 (stereo unspecified) | inhibition | 76.2 |
| Cc1[nH]n2c(=O)cc(C(C)C)nc2c1-c1ccccc1 | inhibition | 100 |
| OCCC#Cc1ccc(CN2CCCC(CO)(Cc3ccccc3)C2)cc1 (stereo unspecified) | inhibition | 69.2 |
| NC(=O)CSc1nnc(SCc2ccc(Cl)c(Cl)c2)s1 | inhibition | 24.1 |
| COc1ccc(-c2nc(-c3ccccc3F)cs2)cc1OC | inhibition | 12.5 |
| O=C(Nc1ccc2c(c1)Cc1ccccc1-2)c1ccco1 | inhibition | 90 |
| CC(O)CN1CCN(C(=O)c2cc(Cl)c(Cl)n2C)CC1 (stereo unspecified) | inhibition | -16.4 |
| Cc1ccc(OC(C)C(=O)Nc2ccc3c(c2)CCC3)cc1 (stereo unspecified) | inhibition | 1.9 |
| O=C(c1ccco1)N1CCC(CCc2ccc(-c3ccccc3)cc2)CC1 | inhibition | 81 |
| OCCC#Cc1ccc(CN2CCCC(Nc3ccccc3)C2)cc1 (stereo unspecified) | inhibition | 70.9 |
| CC(C)(C)C(=O)Nc1nnc(-c2ccc3c(c2)CCCC3)o1 | inhibition | 92.3 |
| O=C(CSc1nnc(SCC(=O)c2cccs2)s1)c1cccs1 | inhibition | 96.8 |
| CN(C(=O)CN1CCC(c2cc3ccccc3[nH]2)CC1)C1CC1 | inhibition | -6.34 |
| O=C(c1ccco1)N1CCCC2(CCCCC2)C1 | inhibition | -18 |
| CCc1[nH]n(-c2ccc(Cl)c(Cl)c2)c(=O)c1C1=C(N(C)C2CCCCC2)C(=O)N(c2ccccc2F)C1=O | inhibition | 65.4 |
| CCOC(=O)Cc1cc(=O)n2[nH]c(-c3ccccc3)c(-c3ccccc3)c2n1 | inhibition | 40.6 |
| OCC1(Cc2ccccc2)CCCN(Cc2ccc(OC(F)(F)F)cc2)C1 (stereo unspecified) | inhibition | 20.7 |
| Cc1c(Cl)cccc1Nc1ccccc1C(=O)O | inhibition | 101 |
